- Study Target: T1, cynomolgus monkey KLB (+N-ter FLAG) (cynomolgus monkey, UniProt Q86Z14 53-991 (human entry))
- T1 construct: expressed from KLB cDNA on HEK293T cells and read by FACS; also called Cyno KLB
- T1 chain: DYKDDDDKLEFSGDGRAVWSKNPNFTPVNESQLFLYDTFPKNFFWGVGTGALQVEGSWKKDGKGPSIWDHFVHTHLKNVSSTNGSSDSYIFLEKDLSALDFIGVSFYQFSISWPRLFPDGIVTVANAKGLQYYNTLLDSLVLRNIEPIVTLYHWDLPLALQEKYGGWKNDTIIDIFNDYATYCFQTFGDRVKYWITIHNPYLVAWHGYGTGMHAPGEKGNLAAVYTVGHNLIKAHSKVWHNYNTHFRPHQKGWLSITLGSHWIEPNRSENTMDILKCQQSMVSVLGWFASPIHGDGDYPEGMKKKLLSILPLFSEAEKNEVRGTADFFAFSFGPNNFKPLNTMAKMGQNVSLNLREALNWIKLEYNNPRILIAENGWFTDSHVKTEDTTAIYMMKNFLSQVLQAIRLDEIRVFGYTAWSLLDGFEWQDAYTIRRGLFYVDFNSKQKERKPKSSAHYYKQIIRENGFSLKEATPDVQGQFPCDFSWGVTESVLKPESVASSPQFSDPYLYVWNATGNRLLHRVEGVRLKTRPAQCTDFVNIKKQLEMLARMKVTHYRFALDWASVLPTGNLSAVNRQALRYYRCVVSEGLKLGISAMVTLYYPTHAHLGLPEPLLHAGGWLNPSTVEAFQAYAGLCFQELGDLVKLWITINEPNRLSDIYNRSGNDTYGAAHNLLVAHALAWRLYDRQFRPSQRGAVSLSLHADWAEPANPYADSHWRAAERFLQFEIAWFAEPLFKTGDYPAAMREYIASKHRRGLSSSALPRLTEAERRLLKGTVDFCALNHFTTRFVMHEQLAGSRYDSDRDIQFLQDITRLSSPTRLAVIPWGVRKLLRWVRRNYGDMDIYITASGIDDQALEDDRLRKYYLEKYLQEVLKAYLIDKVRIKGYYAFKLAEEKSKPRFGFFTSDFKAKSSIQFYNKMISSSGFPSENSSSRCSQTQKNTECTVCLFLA
- Run Description: FACS on transfected HEK293T cells
Property Measured: binding result

5F8 (antibody, V domains shown, murine hybridoma-derived anti-KLB antibody) VH: EVQLQQSGTELVRPGASVKLSCTSSDFNIKDTYIHWVKQRPEQGLDWLGRIDPANGNTKYDPKFQGKAAMTSDTSSNTAYLRLSSLTSEDTAVYYCASSGNYGAMDYWGQGTSVTVSS VL: ESVLTQSPALMSASLGEKVTMTCRASSSVNHMYWYQQKSDASPKLWIYYTSTLAPGVPARFSGSGSGNSYSLTISSMEGEDAATYYCQQFTISPSMYTFGGGTKLEIK
binds
